- System: EKVX NSCLC
- Method: NCI-60 one-dose screen, 48 h (100 = growth as untreated, 0 = no growth, -100 = all killed)
- Condition Set: 10 µM unless noted
The panel holds about 83,000 compounds, 20% with a hit somewhere; the sample as a whole holds those more often. The source made the active and inactive calls. How the source made its calls: active means growth percent below 10; inactive means the rest.
Parameter: growth

{"columns": ["Compound", "Result"],
 "data": [
  ["CC1(C)NCCC[C@]2(C)[C@H]3CC(=O)[C@H]4[C@@H]5C[C@](C)(CO)CC[C@]5(C)CC[C@@]4(C)[C@]3(C)CC[C@@H]12", "96.9% (inactive)"],
  ["COc1cc(NC(C)CCCNC(=O)CCC(=O)NCCCNCCCCCCCCNCCCNC(=O)CCC(=O)NCCCC(C)Nc2cc(OC)cc3cccnc23)c2ncccc2c1 (stereo unspecified)", "79.6% (inactive)"],
  ["O=C(Cc1ccc(/C=C/C(=O)c2ncc[nH]2)cc1)Nc1ccc(Cl)cc1", "65.2% (inactive)"],
  ["O=C1Nc2cc(-c3cccc([N+](=O)[O-])c3)ccc2/C1=C/c1ccc[nH]1", "29.8% (inactive)"],
  ["COc1cc2oc(-c3cccc(C(=O)Nc4ccccc4)c3)cc(=O)c2c(O)c1OC", "97.9% (inactive)"],
  ["COc1ccc(/C=C/c2nc(Nc3ccc(Cl)cc3)c3ccccc3n2)cc1", "81.8% (inactive)"],
  ["CCOC(=O)/C(C#N)=C1/NNC(=Nc2cccnc2)S1", "98.7% (inactive)"],
  ["CC(=O)Nc1ccc(-c2ccc3c(c2)NC(=O)/C3=C\\c2ccc[nH]2)cc1", "49.5% (inactive)"],
  ["CCCCCCCCCCCCCCCC[N+]1(C)CCN(SN2CC[N+](C)(CCCCCCCCCCCCCCCC)CC2)CC1", "82.3% (inactive)"],
  ["NC1=NN=C(N)C1=Cc1cc2ccccc2n2nnnc12", "77% (inactive)"],
  ["O=S(=O)(NCCNc1nccc(-c2c(-c3cccc(O)c3)nc3occn23)n1)c1ccccc1", "109% (inactive)"],
  ["O=Cc1ccc(-c2cn3ccnc3c(-c3ccc4ncn(Cc5ccccc5)c4c3)n2)cc1", "79.1% (inactive)"],
  ["CCCCOc1ccc(/C=N/Nc2cc(C)nc3ccc(Br)cc23)cc1", "69.9% (inactive)"],
  ["O=C(Cc1ccccc1)NNc1nc(Cl)nc(N2CCN(C(c3ccccc3)c3ccccc3)CC2)n1", "91.9% (inactive)"],
  ["CC1=CCC(OC(=O)C(C)(O)CCC(O)(C(=O)OC2(C)C=CC(O)(C(C)C)CC2)C(C)C)(C(C)C)CC1 (stereo unspecified)", "99% (inactive)"],
  ["COC(=O)CNC(=O)[C@]12CCC(C)(C)C[C@H]1C1=CC[C@@H]3[C@@]4(C)Cc5c([nH]c6ccccc56)C(C)(C)[C@@H]4CC[C@@]3(C)[C@]1(C)CC2", "88.6% (inactive)"],
  ["O=C(O)c1ccc(NCc2cn(-c3ccc(C(F)(F)F)cc3)nc2-c2ccc(C(=O)O)cc2)cc1", "98% (inactive)"],
  ["COc1cc2cc(Oc3cccc(NC(=O)Nc4cc(C(F)(F)F)cc(C(F)(F)F)c4)c3)c(C)nc2cc1OC", "2.88% (active)"],
  ["Cc1ccc(S(=O)(=O)NNC(=O)/C(=C\\c2ccc(Cl)cc2)c2nc3ccccc3s2)cc1", "91.1% (inactive)"],
  ["NC(=O)CSSCC(N)=O", "86.7% (inactive)"],
  ["COc1cc2c(c(OC)c1OC)CCC(c1cccc(NC(=O)c3cccc(Br)c3)c1)O2 (stereo unspecified)", "84.6% (inactive)"],
  ["N#CC1C(C#N)C(C(=O)c2ccc(Br)cc2)N2c3ccccc3C=CC12 (stereo unspecified)", "63.9% (inactive)"],
  ["CCNc1nc2ccc(Nc3ccnc4cc(Cl)ccc34)cc2[nH]1", "89.9% (inactive)"],
  ["COc1ccc(/C=C2\\Oc3cc(OCCCCCN4CCCCC4)ccc3C2=O)cc1OC", "78.7% (inactive)"],
  ["COc1cc2oc(-c3cccc(C(=O)Nc4ccc(Br)cc4)c3)cc(=O)c2c(OC)c1OC", "60% (inactive)"],
  ["CCCCCC(=O)Oc1ccc(/C(=C(/C)Cc2ccc(OC)cc2)c2ccc(OCCCN(C)C)cc2)cc1", "88.7% (inactive)"],
  ["CC(Oc1ccc(C(=O)O)cc1C(F)(F)F)c1ccc(Oc2ccccc2)cn1 (stereo unspecified)", "103% (inactive)"],
  ["CC(=O)c1ccc(NS(=O)(=O)c2cccc(C(=O)Nc3ccc(Br)cc3)c2)cc1", "34.2% [25 µM] (inactive)"],
  ["O=C(Nc1cccc(C2=NCCN2)c1)c1ccc(-c2ccc(C(=O)Nc3cccc(C4=NCCN4)c3)cc2)cc1", "95.8% (inactive)"],
  ["N#Cc1c(NC(=O)NCc2ccccc2)sc2c1CCCCC2", "39.3% (inactive)"],
  ["COc1cc2c(=O)n(CCN)c3c4cc5c(cc4ccc3c2cc1OC)OCO5", "52.7% (inactive)"],
  ["C=CCn1c(-c2ccc(-c3nc4ccc(C)cc4[nH]3)cc2)n[nH]c1=S", "94.5% (inactive)"],
  ["CCCCOc1ccc(/C(C)=N/Nc2cc(C)nc3ccc(Br)cc23)cc1", "88.2% (inactive)"],
  ["C#CCNC(=O)c1cccc2c1cc(C)n2-c1nc2c(c(NCc3ccccc3)n1)CCCC2", "-30.4% (active)"],
  ["COC(=O)C(OC(C)=O)C(OC(C)=O)c1ccc(OC)c(OC)c1 (stereo unspecified)", "107% (inactive)"],
  ["CCC(=O)Oc1ccc(/C(=C(\\C)c2ccccc2)c2ccc(OCCN3CCCCC3)cc2)cc1", "87.1% (inactive)"]
]}
